Tested on: P12-Ichikawa
Procedure Details: cell viability relative to DMSO control; higher = less cytotoxic
Run Conditions: RPMI 5 mM glucose + 10% dialyzed FBS; 48 h; 0.00702 µM
Measurement Label: cell viability (%)
Just the number please, in %, no unit attached.

Reference set (3 entries):
Quick one: cell viability for COC(=O)C/1=C(C)/N/C(=C(\C1C2=CC(=CC=C2)[N+]([O-])=O)C(=O)OCCCN3CCC(CC3)(C4=CC=CC=C4)C5=CC=CC=C5)C (centres undefined) ?
99.3

Would you mind telling me what cell viability value was observed for CCOC(=O)O[C@]1(C(=O)OCCl)CC[C@H]2[C@@H]3CCC4=CC(=O)C=C[C@]4(C)[C@H]3[C@@H](O)C[C@@]21C ?
94.6

// cell viability lookup, key: COc1cc2c(Nc3ccc(Cl)c(Cl)c3F)ncnc2cc1OC[C@@H]1C[C@@H]2CN(C)C[C@@H]2C1
108

Others:
Value lookup for cell viability; key = N=C(N)Nc1ccc(C(=O)Oc2ccc3cc(C(=N)N)ccc3c2)cc1
86.5

----------
System: SEM cells
Procedure Details: AUC of viability dose-response curve (% viability x log10 dose units); higher = less sensitive
Run Conditions: RPMI 5 mM glucose + 10% dialyzed FBS; 48 h
Reported AUC of viability dose-response curve values are given for each entry in this list.
Write no unit; give the number alone.

Reference set, count: 8
Look at this compound and give its reported AUC of viability dose-response curve. CN(C)[C@@H](CCOc1cccc2ccccc12)c1ccccc1
469

Fill blank: measured AUC of viability dose-response curve of the compound CCCCCCCCCCCCc1ccc([S+](=O)([O-])Nc2nncs2)cc1 is ____.
415

Please look up its AUC of viability dose-response curve: COc1cc2c(Nc3ccc(Cl)c(Cl)c3F)ncnc2cc1OC[C@@H]1C[C@@H]2CN(C)C[C@@H]2C1
438

Find the recorded AUC of viability dose-response curve belonging to C[C@@H](N)C1CC[C@@H](CC1)C(=O)NC2=CC=NC=C2 (some centres undefined) and report it.
464

# input compound: COc1cc2ncnc(Nc3cccc(Cl)c3)c2cc1OC ; wanted: its AUC of viability dose-response curve
274

# query: AUC of viability dose-response curve of entry CCOC(=O)[C@H](CCc1ccccc1)N[C@H]1CS[C@H](c2cccs2)CN(CC(=O)O)C1=O.Cl
468

Give the measured AUC of viability dose-response curve of CN(C)CCCN\C1=C\2C(=O)N(C)C(=O)\N=C2N(C)C3=C1C=CC=C3 .
397

Would you mind telling me what AUC of viability dose-response curve value was observed for Cc1c(C(=O)c2cccc3ccccc23)c2cccc3c2n1[C@H](CN1CCOCC1)CO3 ?
403

Further cases:
Reported AUC of viability dose-response curve, compound CCCCCCCCCCCC/1=C(O)/C(=O)/C=C(O)\C1=O : ____
457

----------
System: SEM cells
Procedure Details: cell viability relative to DMSO control; higher = less cytotoxic
Run Conditions: RPMI 5 mM glucose + 10% dialyzed FBS; 48 h; 1.71 µM
Readings of cell viability for the listed molecules
Answer with a number only, understood to be in %.

// solved cases for cell viability follow
Quick one: cell viability for C1COC(NC(C2CC2)C2CC2)=N1 ?
16.6

May I ask what cell viability has been recorded for CC(C)(C)OC(=O)Nc1ccc(-c2cc(C(=O)NCCCCCCC(=O)NO)no2)cc1 ?
28.1

What measured cell viability goes with O=C(O)Cc1cccc(OCCCN(Cc2cccc(C(F)(F)F)c2Cl)CC(c2ccccc2)c2ccccc2)c1 ?
103

Requested read-out: cell viability. Entry: OC[C@H]1OC(OC2=CC3=C(C(=C2)O)C(=O)\C(=C/O3)C4=CC=C(O)C=C4)[C@H](O)[C@@H](O)[C@@H]1O (stereo not given in full)
96.6

May I ask what cell viability has been recorded for C[C@@H](N)C1CC[C@@H](CC1)C(=O)NC2=CC=NC=C2 (stereo not given in full) ?
120

More entries:
Any idea what its cell viability is? The molecule is COc1cc2c(Nc3ccc(Cl)c(Cl)c3F)ncnc2cc1OC[C@@H]1C[C@@H]2CN(C)C[C@@H]2C1
95.5

Given the entry N[C@@H](Cc1ccc(O)c(O)c1)C(=O)O , report its measured cell viability.
123

I am curious: what cell viability value has been reported for CC(C)(Sc1ccc(CCN(CCCCC2CCCCC2)C(=O)NC2CCCCC2)cc1)C(=O)O ?
96.9

Endpoint output: cell viability of Nc1ccc([S+](=O)([O-])Nc2ncccn2)cc1 . Value?
129

Name the reported cell viability value associated with the molecule CC[C@H]1CN2CCc3cc(OC)c(OC)cc3[C@@H]2C[C@@H]1C[C@H]1NCCc2cc(OC)c(OC)cc21
13
